- Tested on: Trp53-null neurospheres
- test: Dose-response proliferation assay on control Trp53-null neurospheres
- Assay type: cell-based, mouse
- stated.conditions: Mus musculus, 72 h, read-out: EC50 Trp53-null
*1 amine or outer side, *2 acyl side, *3 side chain or, on linkers, in order; H or OH if unused. Where a SMILES comes first, the peptide text is derived from it. Bridges are numbered along the chain shown (N, C = ends). Roman numbers before positions name the chains, in order. [ ]: non-standard residue; d: D form. Actinocin(9to1) = Cc1c2oc3c(C)ccc(C(=O)[*:1])c3nc-2c(C(=O)[*:2])c(N)c1=O; NMeV = CN[C@H](C(=O)O)C(C)C; Sar = CNCC(=O)O
EC50 less than 200 nM is 1; EC50 greater than or equal to 200 nM is -1.

- compound: "Nc1nc(Cl)nc2c1ncn2[C@H]1C[C@H](O)[C@@H](CO)O1"
  assigned.class: -1
- compound: "COc1cc([C@@H]2c3cc4c(cc3[C@@H](O[C@@H]3O[C@@H]5CO[C@@H](C)O[C@H]5[C@H](O)[C@H]3O)[C@H]3COC(=O)[C@H]23)OCO4)cc(OC)c1O [Etoposide]"
  assigned.class: 1
- compound: "CC[C@H](C)C(=O)O[C@H]1C[C@@H](C)C=C2C=C[C@H](C)[C@H](CC[C@@H]3C[C@@H](O)CC(=O)O3)[C@H]21"
  assigned.class: -1
- compound: "Cc1c2oc3c(C)ccc(C(=O)N[C@@H]4C(=O)N[C@H](C(C)C)C(=O)N5CCC[C@H]5C(=O)N(C)CC(=O)N(C)[C@@H](C(C)C)C(=O)O[C@@H]4C)c3nc-2c(C(=O)N[C@@H]2C(=O)N[C@H](C(C)C)C(=O)N3CCC[C@H]3C(=O)N(C)CC(=O)N(C)[C@@H](C(C)C)C(=O)O[C@@H]2C)c(N)c1=O [Dactinomycin] (I: T[dV]P[Sar][NMeV] / II: T[dV]P[Sar][NMeV]; ester I:1-I:C, II:1-II:C; linker I:N-II:N via Actinocin(9to1))"
  assigned.class: 1
- compound: "CN(Cc1cnc2nc(N)nc(N)c2n1)c1ccc(C(=O)N[C@@H](CCC(=O)O)C(=O)O)cc1 [Methotrexate]"
  assigned.class: 1
- compound: "O=c1[nH]c(=O)n([C@H]2C[C@H](O)[C@@H](CO)O2)cc1C(F)(F)F"
  assigned.class: 1
- compound: "CC[C@]1(O)C[C@H]2CN(CCc3c([nH]c4ccccc34)[C@@](C(=O)OC)(c3cc4c(cc3OC)N(C=O)[C@H]3[C@@](O)(C(=O)OC)[C@H](OC(C)=O)[C@]5(CC)C=CCN6CC[C@]43[C@@H]65)C2)C1"
  assigned.class: 1
- compound: "COC(=O)Nc1nc2ccc(C(=O)c3cccs3)cc2[nH]1"
  assigned.class: 1
- compound: "N=c1ccn2c(n1)O[C@H]1[C@H](O)[C@@H](CO)O[C@H]12"
  assigned.class: -1
- compound: "CC1(C)N=C(N)N=C(N)N1c1ccc(Cl)cc1"
  assigned.class: 1
- compound: "COc1cc([C@@H]2c3cc4c(cc3[C@H](O)[C@H]3COC(=O)[C@H]23)OCO4)cc(OC)c1OC"
  assigned.class: 1
- compound: "Cc1nc2ccc(CN(C)c3ccc(C(=O)N[C@@H](CCC(=O)O)C(=O)O)s3)cc2c(=O)[nH]1"
  assigned.class: -1
- compound: "COc1cc(NCc2ccc3nc(N)nc(N)c3c2C)cc(OC)c1OC [Trimetrexate]"
  assigned.class: 1
- compound: "COc1cccc2c1C(=O)c1c(O)c3c(c(O)c1C2=O)C[C@@](O)(C(=O)CO)C[C@@H]3O[C@H]1C[C@H](N)[C@H](O)[C@H](C)O1"
  assigned.class: 1
- compound: "CC(C)C[C@H](NC(=O)[C@H](Cc1ccccc1)NC(=O)c1cnccn1)B(O)O"
  assigned.class: 1
- compound: "CCc1nc(N)nc(N)c1-c1ccc(Cl)cc1"
  assigned.class: -1
- compound: "CC[C@@]1(O)C(=O)OCc2c1cc1n(c2=O)Cc2cc3c(CN(C)C)c(O)ccc3nc2-1"
  assigned.class: 1
- compound: "O=c1[nH]c(=O)n([C@H]2C[C@H](O)[C@@H](CO)O2)cc1F"
  assigned.class: 1
- compound: "Nc1nc2[nH]cc(CCc3ccc(C(=O)N[C@@H](CCC(=O)O)C(=O)O)cc3)c2c(=O)[nH]1"
  assigned.class: -1
- compound: "Nc1ccn([C@@H]2O[C@H](CO)[C@@H](O)C2(F)F)c(=O)n1"
  assigned.class: 1
- compound: "COc1cccc2c1C(=O)c1c(O)c3c(c(O)c1C2=O)C[C@@](O)(C(C)=O)C[C@@H]3O[C@H]1C[C@H](N)[C@H](O)[C@H](C)O1"
  assigned.class: 1
- compound: "COc1cc(NS(C)(=O)=O)ccc1Nc1c2ccccc2nc2ccccc12"
  assigned.class: -1
- compound: "CC[C@]1(O)C[C@@H]2CN(CCc3c([nH]c4ccccc34)[C@@](C(=O)OC)(c3cc4c(cc3OC)N(C)[C@H]3[C@@](O)(C(=O)OC)[C@H](OC(C)=O)[C@]5(CC)C=CCN6CC[C@]43[C@@H]65)C2)C1"
  assigned.class: 1
- compound: "Nc1nc(Cl)nc2c1ncn2[C@@H]1O[C@H](CO)[C@@H](O)[C@@H]1F"
  assigned.class: -1
- compound: "Nc1nc2nc[nH]c2c(=S)[nH]1"
  assigned.class: -1
- compound: "Nc1ncn([C@H]2C[C@H](O)[C@@H](CO)O2)c(=O)n1"
  assigned.class: 1
- compound: "O=c1[nH]cc(F)c(=O)[nH]1"
  assigned.class: -1
- compound: "COCc1c(C(C)C)nc(C(C)C)c(/C=C/[C@@H](O)C[C@@H](O)CC(=O)O)c1-c1ccc(F)cc1"
  assigned.class: -1
